- Test system: CP192
- assay protocol: qHTS profiling for inhibitors of Plasmodium falciparum proliferation (AID 504749); note: nearly all actives have a fitted effect of over 60% in size
- measurement context: P. falciparum in erythrocytes, SYBR Green DNA, 72 h; series mostly up to 28.7 µM
Results filed as inconclusive are left out. Calls of active or inactive are those of the source. Calls come from the whole dose curve; as a rule, active = well fitted inhibition curve with a large enough effect; inconclusive = small, poorly fitted or top-dose-only effect; inactive = flat fitted curve, though single readings scatter.
readout kind: outcome

Recall and state the measured outcome for `O=C(O)c1cccc(-c2noc(-c3ccccc3F)n2)c1` .
inactive

Answer with reported outcome of `CCc1nc(N)nc(N)c1-c1ccc(Cl)cc1`
inactive

Quick one: give measured outcome for `CCOC(=O)c1c(C)n(C)c2ccc(O)cc12`
inactive

* * *

- assay protocol: High Content Imaging Cell-Based qHTS for Inhibitors of the mTORC1 Signaling Pathway in MEF (Tsc2-/-, p53-/-) Cells (AID 2666);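 note: percent of cells scored positive for phospho-rpS6 Ser235/236 immunostaining by imaging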
- measurement context: series mostly up to 38.3 µM
Records with an inconclusive call do not appear. Calls of active or inactive are those of the source. Calls come from the whole dose curve; as a rule, active = well fitted inhibition curve with a large enough effect; inconclusive = small, poorly fitted or top-dose-only effect; inactive = flat fitted curve, though single readings scatter.
readout kind: outcome

Take a look at these entries with their results.
Give outcome for the following compound: `O=C(CCc1ccc(O)cc1)c1c(O)cc(O)cc1O`
inactive

Name the recorded outcome of the compound listed here: Cc1c(OCC(F)(F)F)ccnc1CS(=O)c1nc2ccccc2[nH]1 (stereo not given)
inactive

For CN(C)CCCC1(c2ccc(F)cc2)OCc2cc(C#N)ccc21 (stereo not given) , write its outcome.
inactive

Consider the compound `CC(C)c1ccc2c(c1)c(SC(C)(C)C)c(CC(C)(C)C(=O)O)n2Cc1ccc(Cl)cc1` . State its measured outcome.
inactive

Read the entry `Nc1nc(OCc2ccccc2)c2[nH]cnc2n1` and write its reported outcome.
inactive

Give the reported outcome for this compound. COc1cc2c(cc1OC)C1CC(=O)C(CC(C)C)CN1CC2 (stereo not given)
inactive

Next:
Supply recorded outcome for `NNc1nncc2ccccc12` here.
inactive

Return outcome (reported value) for this compound: CC(=O)O[C@H]1C(=O)[C@@]2(C)C([C@H](OC(=O)c3ccccc3)[C@]3(O)C[C@H](OC(=O)[C@H](O)[C@@H](NC(=O)c4ccccc4)c4ccccc4)C(C)=C1C3(C)C)[C@]1(OC(C)=O)CO[C@@H]1C[C@@H]2O (stereo not given in full)
inactive

Quick one: give measured outcome for `C[C@H](Cc1ccc(O)c(O)c1)[C@@H](C)Cc1ccc(O)c(O)c1`
inactive

Tell us which outcome value is on record for O=C1c2c(O)cc(O)cc2OC(c2ccc(O)c(O)c2)C1O (stereo not given)
inactive

* * *

- Test system: Tov112D
- assay protocol: Primary qHTS to identify gynecologic anti-cancer compounds using libraries of approved drugs and bioactive compounds (AID 1345084); note: nearly all actives have a fitted effect of over 55% in size
- measurement context: Gynecologic cancer cell panel viability, ATPlite luminescence, 48 h; series mostly up to 57.5 µM
Results filed as inconclusive are left out. The source made the active and inactive calls. The call rests on the fitted dose curve; in most records, active means well fitted cell-killing curve with a large enough effect; inconclusive means small, poorly fitted or top-dose-only effect, or effect the other way; inactive means flat fitted curve, though single readings scatter.
Your answer must be one of the following: active, inactive

// param item: CCC(C)(Oc1ccc(C2(c3ccc(OC(C)(CC)C(=O)O)cc3)CCCCC2)cc1)C(=O)O (centres undefined) ; yields the recorded call
inactive

Outcome? COc1cc2nc(N3CCN(C(=O)C4CCCO4)CC3)nc(N)c2cc1OC (centres undefined)
inactive

Hi team, can someone confirm the assay call for `O=C(O)c1cc(=O)c2c(OCC(O)COc3cccc4oc(C(=O)O)cc(=O)c34)cccc2o1` ?
inactive

Outcome logged for CC1=C(C)C(=O)C(C(CCCCCC(=O)O)c2ccccc2)=C(C)C1=O (centres undefined) in this assay:
inactive

Dear colleague, could you share the recorded outcome for COc1ccc(C2(C#N)CCC(C(=O)O)CC2)cc1OC1CCCC1 (centres undefined) when you have a moment?
inactive

What call does the record list for `CCCCCCCCOc1ccccc1C(=O)Nc1ccc(C(=O)OCC[N+](C)(CC)CC)cc1` ?
inactive

// outcome(item) with item = `CNC[C@H](O)c1ccc(O)c(O)c1`
inactive

Which outcome was entered for the compound `CCN(CC)CCOc1ccc(Cc2ccccc2)cc1` in this test?
inactive

Record request — test call for Cc1ncc([N+](=O)[O-])n1CC(C)O (centres undefined)
inactive

I would be grateful if you could indicate the recorded call for `Cc1cc2c(s1)Nc1ccccc1N=C2N1CCN(C)CC1` .
inactive

Which outcome was assigned to `CCCCc1ccc2nc(NC(=O)OC)[nH]c2c1` in this test?
active

// outcome(item) with item = `Cn1c(NCCN(CCO)CCCc2ccc([N+](=O)[O-])cc2)cc(=O)n(C)c1=O`
inactive

Dear colleague, could you share the recorded outcome for `CCOC(=O)c1c(C)n(C)c2ccc(O)cc12` when you have a moment?
inactive

Kindly provide the recorded test outcome for the following compound: `CS(=O)(=O)OCCCCOS(C)(=O)=O`
inactive

GET /call?item= `C=CCc1cc(OC)c(O)c(C(=O)NCCO)c1` returns the recorded outcome of this test.
inactive

How was `N=C(N=C(N)N)N1CCOCC1` classified in this test?
inactive

Field: outcome | Entry: O=C(NCC1CCCCN1)c1cc(OCC(F)(F)F)ccc1OCC(F)(F)F (centres undefined)
inactive

Kindly provide the recorded test outcome for the following compound: `CN(C)c1ccc(O)c2c1C[C@H]1C[C@H]3[C@H](N(C)C)C(=O)C(C(N)=O)=C(O)[C@@]3(O)C(=O)C1=C2O`
inactive

// outcome(item) with item = `N=C(N)c1ccc2cc(OC(=O)c3ccc(N=C(N)N)cc3)ccc2c1`
inactive

Lab log entry: `O=C1CCc2ccc(OCCCCN3CCN(c4cccc(Cl)c4Cl)CC3)cc2N1` — outcome as called in the assay?
inactive

// outcome(item) with item = `c1cnc2cc3c(cc2n1)C1CNCC3C1`
inactive

Record lookup: outcome of this test for `NS(=O)(=O)c1cc(C(=O)O)c(NCc2ccco2)cc1Cl` ?
inactive

GET /call?item= CC(S)C(=O)NCC(=O)O (centres undefined) returns the recorded outcome of this test.
inactive

Please share the test call associated with CCCCC(CC)COC(=O)C(C#N)=C(c1ccccc1)c1ccccc1 (centres undefined) .
inactive

* * *

- Tested on: CP297
- assay protocol: qHTS profiling for inhibitors of Plasmodium falciparum proliferation (AID 504749); note: nearly all actives have a fitted effect of over 60% in size
- measurement context: P. falciparum in erythrocytes, SYBR Green DNA, 72 h; series mostly up to 28.7 µM
Records with an inconclusive call do not appear. Calls of active or inactive are those of the source. The call rests on the fitted dose curve; in most records, active means well fitted inhibition curve with a large enough effect; inconclusive means small, poorly fitted or top-dose-only effect; inactive means flat fitted curve, though single readings scatter.
Your reply should match one of these outcome classes. active, inactive

I would be grateful if you could indicate the recorded call for `CCN(CC)CCOc1ccc(Cc2ccccc2)cc1` .
inactive

Returns: the outcome recorded for `O=C(O)c1cc(=O)c2c(OCC(O)COc3cccc4oc(C(=O)O)cc(=O)c34)cccc2o1` in this assay.
inactive

Called result for COc1cc2c(cc1OC)C1CC(=O)C(CC(C)C)CN1CC2 (stereo unspecified)
inactive

Hello, I am checking results. What call was entered for `Cc1cc(C2CCCCC2)n(O)c(=O)c1` ?
active

Field: outcome | Entry: `COC1=C(OC)C(=O)C(CCCCCCCCCCO)=C(C)C1=O`
inactive

Tell me the assay call for `O=C(O)c1cccc(-c2noc(-c3ccccc3F)n2)c1` please.
inactive

Per the records of this test, what outcome belongs to `Nc1cc(C(Cl)=C(Cl)Cl)c(S(N)(=O)=O)cc1S(N)(=O)=O` ?
inactive

Could you kindly confirm the outcome this assay logged for `C[C@H](Cn1cnc2c(N)ncnc21)OCP(=O)(O)O` ?
inactive

For `O=C(O)c1cccnc1Nc1cccc(C(F)(F)F)c1` , what call appears in the results of this test?
inactive

Could you please tell me the result logged for `COc1ccc2cc([C@H](C)C(=O)O)ccc2c1` in this assay?
inactive

Please let me know the test result on file for `CCCOc1ccc2nc(NC(=O)OC)[nH]c2c1` .
inactive

Tell me the assay call for `CC1(C)NC(=O)N(c2ccc([N+](=O)[O-])c(C(F)(F)F)c2)C1=O` please.
inactive

Just curious, what result did `CCOc1cc(CC(=O)N[C@@H](CC(C)C)c2ccccc2N2CCCCC2)ccc1C(=O)O` get here?
inactive

Dear all, I need the recorded test outcome for `CC[C@]1(O)C[C@H]2CN(CCc3c([nH]c4ccccc34)[C@@](C(=O)OC)(c3cc4c(cc3OC)N(C=O)[C@H]3[C@@](O)(C(=O)OC)[C@H](OC(C)=O)[C@]5(CC)C=CCN6CC[C@]43[C@@H]65)C2)C1` , thank you.
active

What outcome does the record of this test show for `CC(C)[C@H](N)C(=O)OCCOCn1cnc2c(=O)[nH]c(N)nc21` ?
inactive

Kindly provide the recorded test outcome for the following molecule: `CN(C)c1ccc2nc3ccc(=[N+](C)C)cc-3sc2c1`
active

Short answer needed: outcome of this test for CCC(C)(Oc1ccc(C2(c3ccc(OC(C)(CC)C(=O)O)cc3)CCCCC2)cc1)C(=O)O (stereo unspecified) ?
inactive

Which result was noted for this molecule in the test: `C[C@]12CCC(=O)C=C1CC[C@@H]1[C@H]2[C@@H](O)C[C@@]2(C)[C@H]1CC[C@]2(O)C(=O)CO`
inactive

Status in this test for `Cc1ccc(C)c(OCCCC(C)(C)C(=O)O)c1` ?
inactive

Check the results log: what was the call for `N[C@@H](Cc1cc(I)c(Oc2cc(I)c(O)c(I)c2)c(I)c1)C(=O)O` ?
inactive

Dear colleague, could you share the recorded outcome for `N=C(N=C(N)N)N1CCOCC1` when you have a moment?
inactive

Data provenance: PubChem BioAssay (NCATS)
